target: T1, NlpI (residues 20-294), soluble mature lipoprotein NlpI without the lipoprotein signal peptide (E. coli, UniProt P0AFB1 20-294); assay: ITC; NlpI (300 or 600 µM) injected into 30 µM MepS protein in the cell; 20 °C; 20 mM HEPES pH 7.5, 300 mM NaCl, 2 mM β-mercaptoethanol; one set of sites model; settings: both partners purified
T1 construct: the lipidation residue C19 is not in the construct; pET28a, N-terminal His-tag followed by a TEV site; also called NlpI dimer; adaptor NlpI; source: E. coli BL21 (DE3), purified (Ni-NTA, SEC, MonoQ)
T1 sequence (P0AFB1 20-294): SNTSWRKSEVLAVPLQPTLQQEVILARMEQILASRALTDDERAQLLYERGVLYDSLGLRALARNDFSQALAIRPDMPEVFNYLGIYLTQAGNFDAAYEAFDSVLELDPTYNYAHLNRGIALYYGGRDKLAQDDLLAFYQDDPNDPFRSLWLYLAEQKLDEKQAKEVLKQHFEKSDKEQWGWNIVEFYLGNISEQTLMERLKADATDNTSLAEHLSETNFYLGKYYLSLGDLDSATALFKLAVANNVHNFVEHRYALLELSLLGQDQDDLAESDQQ
Where no end group is shown, it is not given here.
Listing of recorded pKd by entry.
The read-out pKd is expressed as -log10 of concentration in moles per litre.

Answered cases to consult:
BINDER	pKd
MSANNTAKNMHPETRAVGSETSSLQASQDEFENLVRNVD (domain or fragment, E. coli, UniProt P0AFV4 27-65, looked up, also: 15N-labelled, MepS, E. coli, N-terminal 39 residues of the mature protein, C1 replaced with Met. numbers count on: the mature protein; this is told for the NMR samples, not for ITC; source: E. coli BL21 (DE3), purified (Ni-NTA, SEC); not shown: His6 with TEV site, N-terminal, kept) [MepS-N39 (residues 1-39)]	5.57
soluble mature form of MepS (mMepS, residues 1-162) (enzyme, E. coli, UniProt P0AFV4 27-188, looked up, 15N-labelled in the NMR titrations, Cloned into either pET21a (C-terminal His-tag) or pET28a (N-terminal His-tag and TEV site); also called wild-type mMepS; mature full-length MepS; source: E. coli BL21 (DE3), purified (Ni-NTA, SEC)) MSANNTAKNMHPETRAVGSETSSLQASQDEFENLVRNVDVKSRIMDQYADWKGVRYRLGGSTKKGIDCSGFVQRTFREQFGLELPRSTYEQQEMGKSVSRSNLRTGDLVLFRAGSTGRHVGIYIGNNQFVHASTSSGVIISSMNEPYWKKRYNEARRVLSRS	6.62
mMepS-D39A (enzyme, E. coli, UniProt P0AFV4 27-188, looked up, Site-directed mutant of mMepS; source: E. coli BL21 (DE3), purified (Ni-NTA, SEC)) MSANNTAKNMHPETRAVGSETSSLQASQDEFENLVRNVAVKSRIMDQYADWKGVRYRLGGSTKKGIDCSGFVQRTFREQFGLELPRSTYEQQEMGKSVSRSNLRTGDLVLFRAGSTGRHVGIYIGNNQFVHASTSSGVIISSMNEPYWKKRYNEARRVLSRS	6.41

# input for lookup
Problem: What measured pKd goes with MepS-N53 (residues 1-53) (domain or fragment, E. coli, UniProt P0AFV4 27-79, looked up, also: 15N-labelled, MepS, E. coli, N-terminal 53 residues of the mature protein, C1 replaced with Met. numbers count on: the mature protein; this is told for the NMR samples, not for ITC; source: E. coli BL21 (DE3), purified (Ni-NTA, SEC); not shown: His6 with TEV site, N-terminal, kept) MSANNTAKNMHPETRAVGSETSSLQASQDEFENLVRNVDVKSRIMDQYADWKG ?
Solution: 5.84
